The measured values listed here are drawn from patent US20070179060A1.

System: Scirpus juncoides
Assay: Herbicidal activity in transplanted paddy rice
Type: in vivo
Conditions: Schoenoplectiella juncoides, 504 h; paddy water application, 70 g ai/ha, after 3 weeks; read-out: % Control SCPJU
Source text: Weed seeds or nutlets of the desired test plant species were planted in puddled soil (mud) prepared by mixing a non-sterilized mineral soil (28 percent silt, 18 percent clay, and 54 percent sand, with a pH of about 7.3 to 7.8 and an organic matter content of about 1.0 percent) and water at a ratio of 100 kg of soil to 19 L of water. […]
Could you please report measured pest or weed control at 70 g/ha for the items listed next?
One number for each entry, in %.

>>> print(df.to_string())
                                   compound  measured
0  CC(F)c1c(Cl)ccc(-c2cc(N)cc(C(=O)O)n2)c1Cl (centres unmarked)       100
1  CCOC(=O)c1nc(-c2ccc(Cl)c(OC)c2F)cc(N)c1Cl        95
2  CCCCOC(=O)c1nc(-c2c(F)cc(Cl)c(OC)c2F)cc(N)c1Cl       100
3  CCCCOC(=O)c1nc(-c2ccc(Cl)c(OC)c2Cl)cc(N)c1Cl        90
4  COc1c(Cl)ccc(-c2cc(N)c(Cl)c(C(=O)O)n2)c1Cl        95
5  COC(=O)c1nc(-c2ccc(Cl)c(CF)c2F)cc(N)c1Cl        90

Okay, here is my list. What is pest or weed control at 70 g/ha for each of these?
1. COC(=O)c1nc(-c2ccc(Cl)c(OC)c2Cl)cc(N)c1Cl
2. CNc1c(Cl)ccc(-c2cc(N)c(Cl)c(C(=O)OC)n2)c1F
3. COC(=O)c1nc(-c2ccc(Br)c(OC)c2Cl)cc(N)c1Cl

1: 95; 2: 95; 3: 95

Okay, here is my list. What is pest or weed control at 70 g/ha for each of these?
1. COC(=O)c1nc(-c2ccc(F)c(OC)c2F)cc(N)c1Cl
2. CCOc1c(Cl)ccc(-c2cc(N)c(Cl)c(C(=O)OC)n2)c1Cl

95
85

====

Could you please report measured plant injury at 17.5 g/ha for the items listed next?
System: wheat (Triticum aestivum)
Experiment: Postemergence herbicidal activity in cereal crops
Format: in vivo
Conditions: Triticum aestivum, post-emergence, 480 h; crop, post-emergent, 17.5 g ai/ha, after 20-22 days; read-out: % Control TRZAS
Description: When required to ensure good germination and healthy plants, a fungicide treatment and/or other chemical or physical treatment was applied. The plants were grown for 7-36 days in a greenhouse with an approximate 14 hour photoperiod which was maintained at about 18° C. during the day and 17° C. during the night. Nutrients and water were added on a regular basis and supplemental lighting was provided with overhead metal halide 1000-Watt lamps as necessary. […]
Report as: number unit

Solved cases below.
In [3]: df
Out[3]:
                                   molecule                assaytarget  measured
0  CNc1c(Cl)ccc(-c2cc(N)c(Cl)c(C(=O)OC)n2)c1F  wheat (Triticum aestivum)        5%
1  CCCCOCCOC(=O)c1nc(-c2ccc(Cl)c(OC)c2F)cc(N)c1Cl  wheat (Triticum aestivum)        0%
2  CCN(CC)c1c(Cl)ccc(-c2cc(N)c(Cl)c(C(=O)OC)n2)c1F  wheat (Triticum aestivum)        0%

Okay, here is my list. What is plant injury at 17.5 g/ha for each of these?
1. COc1c(Cl)ccc(-c2cc(N)c(Cl)c(C(=O)O)n2)c1F
2. COC(=O)c1nc(-c2c(F)cc(Br)c(OC)c2F)cc(N)c1Cl
3. COC(=O)c1nc(-c2ccc(F)c(OC)c2F)cc(N)c1Cl
4. COC(=O)c1nc(-c2ccc(Cl)c(C(C)F)c2F)cc(N)c1Cl (stereo not drawn)
5. CCCCOC(=O)c1nc(-c2ccc(Br)c(OC)c2F)cc(N)c1Cl
6. COC(=O)c1nc(-c2ccc(Cl)c(OC)c2F)cc(N)c1Cl

1. 10%
2. 0%
3. 0%
4. 10%
5. 0%
6. 5%
